Examples of binders with documented IHC score follow.
assay target: T1, Human EphA2 (ephrin receptor A2) (human, UniProt P29317 24-976)
T1 construct: Endogenous protein in frozen human tumor tissue and tumor adjacent tissue, not a recombinant construct
T1 sequence (P29317 24-976 limits assumed): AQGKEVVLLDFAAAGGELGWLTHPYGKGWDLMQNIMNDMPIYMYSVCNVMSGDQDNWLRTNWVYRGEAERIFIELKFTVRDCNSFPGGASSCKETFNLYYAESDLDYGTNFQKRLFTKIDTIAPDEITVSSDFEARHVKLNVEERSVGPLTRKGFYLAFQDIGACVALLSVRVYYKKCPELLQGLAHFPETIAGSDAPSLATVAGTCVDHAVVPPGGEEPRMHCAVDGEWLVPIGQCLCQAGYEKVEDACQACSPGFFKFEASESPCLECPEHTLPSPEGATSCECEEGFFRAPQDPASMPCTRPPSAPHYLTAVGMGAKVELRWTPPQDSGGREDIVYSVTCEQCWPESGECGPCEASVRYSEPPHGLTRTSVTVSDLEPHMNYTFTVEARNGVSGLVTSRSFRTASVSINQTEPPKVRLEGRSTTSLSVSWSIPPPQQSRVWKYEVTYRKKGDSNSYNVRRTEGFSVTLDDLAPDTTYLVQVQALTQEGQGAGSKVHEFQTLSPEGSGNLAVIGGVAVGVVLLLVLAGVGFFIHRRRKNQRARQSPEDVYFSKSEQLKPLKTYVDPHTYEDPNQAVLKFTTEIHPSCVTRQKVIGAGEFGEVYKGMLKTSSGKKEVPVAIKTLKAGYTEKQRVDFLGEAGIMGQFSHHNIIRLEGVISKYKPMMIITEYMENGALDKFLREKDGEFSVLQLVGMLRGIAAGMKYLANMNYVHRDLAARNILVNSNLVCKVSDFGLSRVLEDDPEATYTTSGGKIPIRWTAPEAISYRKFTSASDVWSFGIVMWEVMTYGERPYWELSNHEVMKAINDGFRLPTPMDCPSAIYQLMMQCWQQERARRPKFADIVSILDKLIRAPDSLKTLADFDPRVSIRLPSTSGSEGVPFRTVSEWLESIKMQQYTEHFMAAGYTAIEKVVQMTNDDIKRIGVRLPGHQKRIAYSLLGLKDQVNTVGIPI
assay method text: IHC/IF score on frozen human tumor tissue, UCEC-papillary
Respond using a number only.

>>> measured_number("AB-009815 (antibody, mouse IgG2a, V domains shown) VH: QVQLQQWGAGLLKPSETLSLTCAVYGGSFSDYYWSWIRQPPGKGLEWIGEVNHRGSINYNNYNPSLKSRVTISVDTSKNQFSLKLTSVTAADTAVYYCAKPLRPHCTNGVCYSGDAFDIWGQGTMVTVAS VL: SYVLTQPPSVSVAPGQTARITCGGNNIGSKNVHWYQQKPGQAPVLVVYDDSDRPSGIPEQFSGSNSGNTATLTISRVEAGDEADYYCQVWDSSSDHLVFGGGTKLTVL")
2
>>> measured_number("AB-009816 (antibody, mouse IgG2a, V domains shown) VH: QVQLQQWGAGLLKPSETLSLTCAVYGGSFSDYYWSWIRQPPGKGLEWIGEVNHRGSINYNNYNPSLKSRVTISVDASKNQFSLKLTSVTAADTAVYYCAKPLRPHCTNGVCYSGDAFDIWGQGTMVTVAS VL: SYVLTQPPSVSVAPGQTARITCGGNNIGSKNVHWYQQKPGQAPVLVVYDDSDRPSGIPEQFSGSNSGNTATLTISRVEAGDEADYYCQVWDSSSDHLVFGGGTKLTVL")
2

Now look at this entry.
Return reported IHC score. Input binder: AB-009812 (antibody, mouse IgG2a, V domains shown) VH: QVQLQQWGAGLLKPSETLSLTCAVYGGSFSDYYWSWIRQPPGKGLEWIGEVNHSGSINYNNYNPSLKSRVTISVDPSKNQFSLKLTSVTAADTAVYYCAKPLRPHCTNGVCYSGDAFDIWGQGTMVTVAS VL: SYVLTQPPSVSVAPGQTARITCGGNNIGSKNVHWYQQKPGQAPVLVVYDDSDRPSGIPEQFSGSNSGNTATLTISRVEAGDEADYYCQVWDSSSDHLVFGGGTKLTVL
2
